System: Crude diglycosidase
Test name: Examination of temperature in the conversion into isoflavone aglycons by diglycosidase using soybean materials
Type: biochemical, Penicillium multicolor IAM7153
Set-up: concentration or dose not given beside the values
Assay setup: 45° C., heat treatment of enzyme yes, reaction time 6 h
Below, each entry is listed alongside its reported Decomposition efficiency of daidzin family in defatted soybean.
Measurement type: Decomposition efficiency of daidzin family in defatted soybean (%)

> print(dat)
                                 cpd.smiles  data.value
1  O=C(O)CC(=O)OC[C@H]1O[C@@H](Oc2ccc3c(=O)c(-c4ccc(O)cc4)coc3c2)[C@H](O)[C@@H](O)[C@@H]1O        44.3
2         O=c1c(-c2ccc(O)cc2)coc2cc(O)ccc12        55.7

* * *

Test system: Crude diglycosidase
Test name: Examination of pH in the conversion into isoflavone aglycons by diglycosidase using soybean materials
Type: biochemical, Penicillium multicolor IAM7153
Parameters: concentration or dose not given beside the values
Assay setup: pH4.8; heat treatment of enzyme: no; reaction time 3 h
Measurement type: Decomposition efficiency of daidzin family in defatted soybean (%)

> print(dat)
                                 cpd.smiles        tested.system  units.of.measure  data.value
1         O=c1c(-c2ccc(O)cc2)coc2cc(O)ccc12  Crude diglycosidase                 %        63.3
2  O=C(O)CC(=O)OC[C@H]1O[C@@H](Oc2ccc3c(=O)c(-c4ccc(O)cc4)coc3c2)[C@H](O)[C@@H](O)[C@@H]1O  Crude diglycosidase                 %        36.7

* * *

Below, each entry is listed alongside its reported Decomposition efficiency of glycitin family in soymilk.
Test system: Crude diglycosidase
Test name: Examination of temperature in the conversion into isoflavone aglycons by diglycosidase using soybean materials
Type: biochemical, Penicillium multicolor IAM7153
Assay setup: 65 °C; heat treatment of enzyme: no; 6 h
Measurement type: Decomposition efficiency of glycitin family in soymilk (%)

> print(dat)
                                 cpd.smiles  data.value
1       COc1cc2c(=O)c(-c3ccc(O)cc3)coc2cc1O        74.5
2  COc1cc2c(=O)c(-c3ccc(O)cc3)coc2cc1O[C@@H]1O[C@H](COC(=O)CC(=O)O)[C@@H](O)[C@H](O)[C@H]1O        25.5

* * *

Tested on: Crude diglycosidase
Test name: Examination of pH in the conversion into isoflavone aglycons by diglycosidase using soybean materials
Assay type: biochemical, Penicillium multicolor IAM7153
Assay setup: pH1.6; heat treatment of enzyme: no; reaction time 3 h
Measurement type: Decomposition efficiency of glycitin family in concentrated soybean protein (%)

> print(dat)
                                 cpd.smiles  data.value
1  COc1cc2c(=O)c(-c3ccc(O)cc3)coc2cc1O[C@@H]1O[C@H](COC(C)=O)[C@@H](O)[C@H](O)[C@H]1O        33.5
2       COc1cc2c(=O)c(-c3ccc(O)cc3)coc2cc1O        11.7
3  COc1cc2c(=O)c(-c3ccc(O)cc3)coc2cc1O[C@@H]1O[C@H](CO)[C@@H](O)[C@H](O)[C@H]1O        54.3
4  COc1cc2c(=O)c(-c3ccc(O)cc3)coc2cc1O[C@@H]1O[C@H](COC(=O)CC(=O)O)[C@@H](O)[C@H](O)[C@H]1O         0.4
